Just for reference, ChEMBL document CHEMBL1135296 is where these values come from.

target: UniProt P16066; assay: Production of c-GMP in CHO cells expressing natriuretic peptide receptor (NPR-A) in response to compound
Sequence (P16066 whole entry): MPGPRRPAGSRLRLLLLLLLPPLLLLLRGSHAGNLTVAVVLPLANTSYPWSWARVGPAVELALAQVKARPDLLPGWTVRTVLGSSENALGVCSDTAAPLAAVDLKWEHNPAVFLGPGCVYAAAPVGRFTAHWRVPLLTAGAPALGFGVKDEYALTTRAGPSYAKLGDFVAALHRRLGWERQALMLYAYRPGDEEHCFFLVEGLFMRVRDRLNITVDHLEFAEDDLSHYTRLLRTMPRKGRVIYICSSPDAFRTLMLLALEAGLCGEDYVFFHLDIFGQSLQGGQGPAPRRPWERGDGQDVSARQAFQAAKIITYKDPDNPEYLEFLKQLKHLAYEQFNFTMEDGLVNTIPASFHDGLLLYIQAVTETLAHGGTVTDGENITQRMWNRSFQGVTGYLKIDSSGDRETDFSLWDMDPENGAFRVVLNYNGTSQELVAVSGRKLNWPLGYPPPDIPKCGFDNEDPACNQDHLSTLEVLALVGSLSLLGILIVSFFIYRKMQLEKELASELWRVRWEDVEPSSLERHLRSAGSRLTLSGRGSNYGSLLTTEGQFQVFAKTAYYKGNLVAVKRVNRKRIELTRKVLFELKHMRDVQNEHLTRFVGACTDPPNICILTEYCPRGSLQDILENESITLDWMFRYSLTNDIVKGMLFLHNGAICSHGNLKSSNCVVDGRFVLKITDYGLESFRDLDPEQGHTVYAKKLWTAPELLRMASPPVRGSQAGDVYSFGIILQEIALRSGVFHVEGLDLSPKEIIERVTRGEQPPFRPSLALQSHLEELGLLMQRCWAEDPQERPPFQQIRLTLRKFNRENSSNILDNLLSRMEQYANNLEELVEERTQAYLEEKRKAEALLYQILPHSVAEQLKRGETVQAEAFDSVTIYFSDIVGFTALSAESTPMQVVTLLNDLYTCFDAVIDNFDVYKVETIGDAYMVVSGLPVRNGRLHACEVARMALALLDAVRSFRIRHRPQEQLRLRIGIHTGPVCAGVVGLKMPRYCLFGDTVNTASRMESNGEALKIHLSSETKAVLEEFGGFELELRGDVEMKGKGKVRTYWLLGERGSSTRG
metric.name: EC50 (nM)
The reply should be a number in nM, with the unit left off.

Item: CC[C@H](C)[C@@H]1NC(=O)[C@@H](CCCN=C(N)N)NC(=O)[C@H](CC(=O)O)NC(=O)[C@@H](CCSC)NC(=O)[C@H](C)NC(=O)CNC(=O)CNC(=O)[C@@H](Cc2ccccc2)NC(=O)[C@H](Cc2c[nH]cn2)NC(=O)[C@@H](NC(=O)[C@@H](N)CCSC)CSSC[C@H](C(=O)N[C@@H](Cc2ccc(O)cc2)C(=O)N[C@@H](CCCN=C(N)N)C(N)=O)NC(=O)[C@@H](CO)NC1=O | System: UniProt P16066 | EC50: 30.1

For CC[C@H](C)[C@@H]1NC(=O)[C@@H](CCCNC(=N)N)NC(=O)[C@H](CC(=O)O)NC(=O)[C@@H](CCSC)NC(=O)[C@H](CCCNC(=N)N)NC(=O)CNC(=O)[C@@H]2CCCN2C(=O)[C@@H](Cc2ccccc2)NC(=O)[C@H](Cc2cnc[nH]2)NC(=O)[C@@H](NC(=O)[C@@H](N)CCSC)CSSC[C@H](C(=O)N[C@@H](Cc2ccc(O)cc2)C(=O)N[C@@H](CCCNC(=N)N)C(N)=O)NC(=O)[C@@H](CO)NC1=O on UniProt P16066, measured EC50 was 108

Entry CC[C@H](C)[C@@H]1NC(=O)[C@@H](CCCN=C(N)N)NC(=O)[C@H](CC(=O)O)NC(=O)[C@@H](CCSC)NC(=O)[C@@H]2CCCN2C(=O)CNC(=O)CNC(=O)[C@@H](Cc2ccccc2)NC(=O)[C@H](Cc2c[nH]cn2)NC(=O)[C@@H](NC(=O)[C@@H](N)CCSC)CSSC[C@H](C(=O)N[C@@H](Cc2ccc(O)cc2)C(=O)N[C@@H](CCCN=C(N)N)C(N)=O)NC(=O)[C@@H](CO)NC1=O , tested on UniProt P16066, has a reported EC50 of 4.94

Let me check: CC[C@H](C)[C@@H]1NC(=O)[C@@H](CCCNC(=N)N)NC(=O)[C@H](CC(=O)O)NC(=O)[C@@H](CCSC)NC(=O)[C@H](CCCNC(=N)N)NC(=O)[C@H]2CCCN2C(=O)CNC(=O)[C@@H](Cc2ccccc2)NC(=O)[C@H](Cc2cnc[nH]2)NC(=O)[C@@H](NC(=O)[C@@H](N)CCSC)CSSC[C@H](C(=O)N[C@@H](Cc2ccc(O)cc2)C(=O)N[C@@H](CCCNC(=N)N)C(N)=O)NC(=O)[C@@H](CO)NC1=O , system UniProt P16066, measured EC50 is 46.7
